biological target: binding partner (antigen) of C5A (XPA23); test: Biacore, K-off, fold vs original
endpoint label: fold difference in affinity vs original (fold)
Numeric only. Scale: fold

Inquiry: Please look up its fold difference in affinity vs original: C5A (XPA23) VH T58W (antibody, V domains shown) VH: EVQLLESGGGLVQPGGSLRLSCAASGFTFSKYFMFWVRQAPGKGLEWVSVISPSGGMWRYADSVKGRFTISRDNSKNTLYLQMNSLRAEDTAVYYCARVGYGGNSDYWGQGTLVTVSS VL: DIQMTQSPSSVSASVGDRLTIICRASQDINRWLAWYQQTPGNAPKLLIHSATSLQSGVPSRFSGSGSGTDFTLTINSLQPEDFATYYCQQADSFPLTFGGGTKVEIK
Reply text: 0.93

Inquiry: Requested field: fold difference in affinity vs original. Item: C5A (XPA23) VH S105G (antibody, V domains shown) VH: EVQLLESGGGLVQPGGSLRLSCAASGFTFSKYFMFWVRQAPGKGLEWVSVISPSGGMTRYADSVKGRFTISRDNSKNTLYLQMNSLRAEDTAVYYCARVGYGGNGDYWGQGTLVTVSS VL: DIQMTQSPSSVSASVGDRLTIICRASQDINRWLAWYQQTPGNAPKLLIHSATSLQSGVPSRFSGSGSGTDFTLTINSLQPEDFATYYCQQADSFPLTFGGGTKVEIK
Reply text: 0.12

Inquiry: // lookup fold difference in affinity vs original for C5A (XPA23) VH N104G (antibody, V domains shown) VH: EVQLLESGGGLVQPGGSLRLSCAASGFTFSKYFMFWVRQAPGKGLEWVSVISPSGGMTRYADSVKGRFTISRDNSKNTLYLQMNSLRAEDTAVYYCARVGYGGGSDYWGQGTLVTVSS VL: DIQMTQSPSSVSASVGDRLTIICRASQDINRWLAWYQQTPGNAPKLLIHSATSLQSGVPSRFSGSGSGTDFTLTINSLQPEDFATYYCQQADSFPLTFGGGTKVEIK
Reply text: 1.21
